Target: 5-HT2C (Homo sapiens (Human), UniProt P28335)
Sequence (P28335 whole entry, looked up): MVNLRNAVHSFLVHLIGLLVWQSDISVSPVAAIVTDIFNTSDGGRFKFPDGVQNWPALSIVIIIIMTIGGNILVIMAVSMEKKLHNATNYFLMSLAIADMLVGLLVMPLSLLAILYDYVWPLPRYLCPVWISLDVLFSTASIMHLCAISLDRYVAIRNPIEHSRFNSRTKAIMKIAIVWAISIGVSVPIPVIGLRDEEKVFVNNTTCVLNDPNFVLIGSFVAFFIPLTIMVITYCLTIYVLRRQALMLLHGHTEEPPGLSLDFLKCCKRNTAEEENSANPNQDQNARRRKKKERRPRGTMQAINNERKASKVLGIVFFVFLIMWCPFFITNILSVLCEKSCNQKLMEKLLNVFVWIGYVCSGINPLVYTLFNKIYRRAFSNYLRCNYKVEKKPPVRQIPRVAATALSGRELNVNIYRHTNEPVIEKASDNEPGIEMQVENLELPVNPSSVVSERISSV
Experiment: 5-HT2C Gq-mediated calcium flux functional assay
Format: cell-based
pEC50: −log10 of the molar value.
Give Y when the value for pEC50 is at least 8. Give N when it is less.

For orientation, consider the following solved cases.
INSERT INTO results (molecule, category) VALUES
  ('CN1CCC[C@@H]1Cc1c[nH]c2ccc(F)cc12', 'Y'),
  ('CCN(C)CCc1c[nH]c2cc(C)c(F)cc12', 'N'),
  ('CCCN(CCC)CCc1c[nH]c2ccc(F)cc12', 'Y'),
  ('CCC(C)N(CCc1c[nH]c2ccc(F)cc12)C1CC1 (stereo not shown)', 'N'),
  ('C#CCN(CCC)CCc1c[nH]c2c(F)cccc12', 'N');

Is pEC50 at least 8? Consider CCC(C)N(CC)CCc1c[nH]c2ccc(F)cc12 (stereo not shown)
N

---

Target: 5-HT1A (Homo sapiens (Human))
Test: 5-HT1A Gi/o-mediated cAMP inhibition, GloSensor assay
Assay type: cell-based
Conditions: cAMP inhibition, 0.2 μM isoproterenol; IA = Inactive
Below, each of the compounds is paired with its reported 5-HT1A-cAMP Emax (% 5-HT) value.
Please reply with the bare figure in % 5-HT and do not write the unit itself.

# annotated cases, reported 5-HT1A-cAMP Emax (% 5-HT) shown
INSERT INTO measurements (compound, observed) VALUES
  ('CCN(C)CCc1c[nH]c2ccc(F)cc12', 91.1),
  ('CCN(CCc1c[nH]c2ccc(F)cc12)C1CCC1', 100.7),
  ('CCC(C)N(CCc1c[nH]c2ccc(F)cc12)C(C)C (stereo not shown)', 88.5),
  ('CC(CN)c1c[nH]c2ccc(F)cc12 (stereo not shown)', 88.5),
  ('C=CCN(CCc1c[nH]c2ccc(F)cc12)C(C)CC (stereo not shown)', 94.2);

Need 5-HT1A-cAMP Emax (% 5-HT), item CCN(CCc1c[nH]c2ccc(F)cc12)C(C)C
86.4

Need 5-HT1A-cAMP Emax (% 5-HT), item CN1CCC(c2c[nH]c3c(F)cccc23)C1 (stereo not shown)
99.2

---

Target: 5-HT2C (Homo sapiens (Human), UniProt P28335)
Experiment: 5-HT2C Gq-mediated calcium flux functional assay
Type: cell-based
Settings: IA = Inactive; N=1-3
Give 1 (yes) when the value for 5-HT2C-Ca2+ FLUX Emax (% 5-HT) is at least 70 % 5-HT. Give 0 (no) when it is less.

Is 5-HT2C-Ca2+ FLUX Emax (% 5-HT) at least 70 % 5-HT? Consider CCCN(CCC)CCc1c[nH]c2ccc(F)cc12
1 (yes)

Is 5-HT2C-Ca2+ FLUX Emax (% 5-HT) at least 70 % 5-HT? Consider CN1CCC(c2c[nH]c3c(F)cccc23)C1 (stereo not drawn)
0 (no)

Is 5-HT2C-Ca2+ FLUX Emax (% 5-HT) at least 70 % 5-HT? Consider CCCN(CC)CCc1c[nH]c2c(F)c(F)ccc12
1 (yes)

Is 5-HT2C-Ca2+ FLUX Emax (% 5-HT) at least 70 % 5-HT? Consider CCCN(CCc1c[nH]c2ccc(F)cc12)C1CCC1
1 (yes)

Is 5-HT2C-Ca2+ FLUX Emax (% 5-HT) at least 70 % 5-HT? Consider CCC(C)N(CC)CCc1c[nH]c2ccc(F)cc12 (stereo not drawn)
1 (yes)
